REPORTED PROPERTY: pKi
# log scale: pKi equals minus log10 of the concentration in mol/L

hCA I (Homo sapiens) / pKi / CCCN1C(=CC=C2CCCC(C=CC3=[N+](CCC)c4ccccc4C3(C)C)=C2NCCNC(=O)Nc2ccc(S(N)(=O)=O)cc2)C(C)(C)c2ccccc21 : value? 6.02

API: value(readout=pKi, system=hCA I (Homo sapiens)) for record CC1(C)C(/C=C/C2=C(NCCNC(=O)Nc3ccc(S(N)(=O)=O)cc3)C(=C/C=C3\N(CCCCS(=O)(=O)O)c4ccc5ccccc5c4C3(C)C)/CCC2)=[N+](CCCCS(=O)(=O)[O-])c2ccc3ccccc3c21 6.03

# query: pKi | item CN1C(=CC=C2CCCC(C=CC3=[N+](C)c4ccc5ccccc5c4C3(C)C)=C2NCCc2ccc(S(N)(=O)=O)cc2)C(C)(C)c2c1ccc1ccccc21 | system: hCA I (Homo sapiens) 6.07

Checklist item: pKi tested on hCA I (Homo sapiens), entry CC1(C)C(/C=C/C2=C(NCCc3ccc(S(N)(=O)=O)cc3)C(=C/C=C3\N(CCCCS(=O)(=O)O)c4ccc5ccccc5c4C3(C)C)/CCC2)=[N+](CCCCS(=O)(=O)[O-])c2ccc3ccccc3c21 , value? 6.28

Request - read-out pKi | tested on hCA I (Homo sapiens) | molecule CCCN1C(=CC=C2CCCC(C=CC3=[N+](CCC)c4ccccc4C3(C)C)=C2NCCc2ccc(S(N)(=O)=O)cc2)C(C)(C)c2ccccc21 6.39

Hello, I am looking for reported pKi with hCA I (Homo sapiens) for CN1C(=CC=C2CCCC(C=CC3=[N+](C)c4ccc5ccccc5c4C3(C)C)=C2NCCNC(=O)Nc2ccc(S(N)(=O)=O)cc2)C(C)(C)c2c1ccc1ccccc21 . Could you help? 5.41

---

- SYSTEM TESTED: PsCA3 (Pseudomonas aeruginosa, UniProt Q9HVB9)
- Sequence (Q9HVB9 1-215): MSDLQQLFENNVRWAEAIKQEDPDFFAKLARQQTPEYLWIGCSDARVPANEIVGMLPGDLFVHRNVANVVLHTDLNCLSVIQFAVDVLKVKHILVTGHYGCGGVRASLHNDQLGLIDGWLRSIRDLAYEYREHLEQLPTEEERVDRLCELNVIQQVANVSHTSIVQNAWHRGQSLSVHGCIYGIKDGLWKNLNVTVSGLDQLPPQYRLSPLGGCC
- EXPERIMENT: biochemical
- TEST PARAMETERS: stopped-flow CO2 hydrase assay, mean from 3 assays
REPORTED PROPERTY: Ki
Units required after the number.

Recorded Ki for CN1C(=CC=C2CCCC(C=CC3=[N+](C)c4ccc5ccccc5c4C3(C)C)=C2NCCc2ccc(S(N)(=O)=O)cc2)C(C)(C)c2c1ccc1ccccc21 [Compound 2e] , please? 0.0777 µM

Using the record for CCCN1C(=CC=C2CCCC(C=CC3=[N+](CCC)c4ccccc4C3(C)C)=C2NCCc2ccc(S(N)(=O)=O)cc2)C(C)(C)c2ccccc21 [Compound 2a] , report its Ki. 0.0894 µM

Quick one: Ki for CC1(C)C(/C=C/C2=C(NCCc3ccc(S(N)(=O)=O)cc3)C(=C/C=C3\N(CCCCS(=O)(=O)O)c4ccc5ccccc5c4C3(C)C)/CCC2)=[N+](CCCCS(=O)(=O)[O-])c2ccc3ccccc3c21 [Compound 2c] ? 0.0768 µM

Fill in the blank: the reported Ki of CCCN1C(=CC=C2CCCC(C=CC3=[N+](CCC)c4ccccc4C3(C)C)=C2NCCNC(=O)Nc2ccc(S(N)(=O)=O)cc2)C(C)(C)c2ccccc21 [Compound 2b] is ____. 0.0481 µM

Sample CN1C(=CC=C2CCCC(C=CC3=[N+](C)c4ccc5ccccc5c4C3(C)C)=C2NCCNC(=O)Nc2ccc(S(N)(=O)=O)cc2)C(C)(C)c2c1ccc1ccccc21 [Compound 2f] — what was its Ki? 0.0945 µM

Recorded Ki of CC1(C)C(/C=C/C2=C(NCCNC(=O)Nc3ccc(S(N)(=O)=O)cc3)C(=C/C=C3\N(CCCCS(=O)(=O)O)c4ccc5ccccc5c4C3(C)C)/CCC2)=[N+](CCCCS(=O)(=O)[O-])c2ccc3ccccc3c21 [Compound 2d] , please. 0.081 µM
